# Tested on: UACC-62
# experimental_details: NCI tumour cell line growth inhibition, 48 h
Calls of active or inactive are those of the source. Cut-off read from the data, not from the text of the source: active = GI50 up to about 1.1 µM and inactive = higher.
Outcomes: TRUE = active, FALSE = inactive

In [3]: df
Out[3]:
                                   compound  class_label
0         O=[N+]([O-])c1cccc2nccc(NCCCO)c12        FALSE
1  COc1cc(C2C3=C(COC3=O)OC(C)(C)Oc3cc4c(cc32)OCO4)cc(OC)c1OC (stereo not given)         TRUE
2  CC(CO)CCNc1ncnc2c1ncn2CCC(=O)O (stereo not given)        FALSE
3  NC(Cc1ccc(B(O)O)cc1)C(=O)NC(CO)CO (stereo not given)        FALSE
4  [O-]c1on[n+]2c1c(Nc1ccc(Cl)cc1)nc1ccccc12        FALSE
